assayName: NCI Yeast Anticancer Drug Screen. Data for the sgs1 mgt1 strain (AID 161);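 also: 0% = growth of cultures given vehicle only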
protocolConditions: S. cerevisiae sgs1 mgt1 strain, at 50.0 µM, hits give high values
Method: Growth inhibition of yeast strains with defined genetic alterations is measured as a screen for potential anti-cancer activity. Selected strains with alterations in DNA damage repair or cell cycle control were exposed to compounds and growth inhibition was measured relative to vehicle treated controls. The strain used in this assay is sgs1 mgt1
Compounds without any hit were thinned out: in the full panel of roughly 79,000, 15% have a hit.
measurementName: growth inhibition (%)

[[record]]
compound = "Nc1cc2ccc(O)cc2c2ccccc12"
measurementname = "growth inhibition"
value = 91

[[record]]
compound = "Cn1c(N)nc(=O)c2[nH]cnc21"
measurementname = "growth inhibition"
value = 6.9

[[record]]
compound = "CN(C)c1nc(N)c(C#N)c(C#N)c1C#N"
measurementname = "growth inhibition"
value = 80.8

[[record]]
compound = "CC1=NC(=Cc2ccc([N+](=O)[O-])cc2)C(=O)N1n1c(-c2ccccc2)nc2ccccc2c1=O"
measurementname = "growth inhibition"
value = 45.3

[[record]]
compound = "COC(=O)C(CC(C)=O)CS(=O)(=O)CC(=O)C(=O)Nc1cccc([N+](=O)[O-])c1 (configuration not stated)"
measurementname = "growth inhibition"
value = 99.2

[[record]]
compound = "O=C1c2ccccc2-n2c1nc1ccccc1c2=O"
measurementname = "growth inhibition"
value = 29.2

[[record]]
compound = "S=c1nc[nH]c2[nH]ccc12"
measurementname = "growth inhibition"
value = -2.35

[[record]]
compound = "C=C1CC2(CC(c3ccccc3C)OC(c3ccccc3C)C2)OC1=O (configuration not stated)"
measurementname = "growth inhibition"
value = 84.1

[[record]]
compound = "Nc1ccc2c(n1)NCC/C2=N\\Nc1ccccc1"
measurementname = "growth inhibition"
value = 79

[[record]]
compound = "COc1cc2c3c(c1)SCCC(=O)N3CCN2"
measurementname = "growth inhibition"
value = -22.6

[[record]]
compound = "CCn1c(-c2c(Cl)cc(O)cc2Cl)cc2c(Cl)cc(O)cc21"
measurementname = "growth inhibition"
value = 98.5

[[record]]
compound = "CC[N+](C)(C)c1ccccc1"
measurementname = "growth inhibition"
value = 48.2


----------
# growth inhibition listing for each entry below
assayName: NCI Yeast Anticancer Drug Screen. Data for the sgs1 mgt1 strain (AID 161);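 also: 0% = growth of cultures given vehicle only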
protocolConditions: S. cerevisiae sgs1 mgt1 strain, at 50.0 µM (retest, dose inferred, filed as 5.0), hits give high values
This is part of a sample that, as a whole, favours compounds with a hit. Of some 79,000 tested, about 15% had one in any assay. Activity calls are given as the source filed them. Rule as the data show it: active = growth inhibition above about 70%; inactive = the rest.
measurementName: growth inhibition

[[record]]
compound = "O=C(CCC(=O)OCCOc1ccccc1)OCCOc1ccccc1"
value = "3% (inactive)"

[[record]]
compound = "CC(CCc1nc2ccccc2s1)(c1ccc(O)cc1)c1ccc(O)cc1"
value = "100% (active)"

[[record]]
compound = "CCN(CCO)CCNc1ccc(C)c2sc3ccccc3c(=O)c12"
value = "98% (active)"

[[record]]
compound = "C=CCCC(=O)O"
value = "3% (inactive)"

[[record]]
compound = "O=[N+]([O-])C(/C=C(\\Cl)[N+](=O)[O-])=C(Nc1ccccc1)Nc1ccccc1"
value = "98% (active)"

[[record]]
compound = "CC(C)(C)c1ccc(-c2c3ccccc3cc3ccccc23)cc1"
value = "-2% (inactive)"

[[record]]
compound = "O=C1C(CN2CCOCC2)CCCC1CN1CCOCC1 (configuration not stated)"
value = "96% (active)"

[[record]]
compound = "NNc1nc2ccccc2s1"
value = "38% (inactive)"

[[record]]
compound = "CCCCCCCCCCS(=O)CC(CO)NC(=O)/C=C/c1c(C)[nH]c(=O)[nH]c1=O (configuration not stated)"
value = "98% (active)"

[[record]]
compound = "CCCCCCCCCCCCc1ccc(S(=O)(=O)O)cc1.[Cu+2]"
value = "97% (active)"

[[record]]
compound = "COC(=O)C1c2cc3c(cc2C(OC2OC(C)C(OC)C(C)(OC)C2OC)CC1(C)O)C(=O)c1c(O)cc2c(c1C3=O)OC1OC2(C)C(O)C([N+](C)(C)[O-])C1O (configuration not stated)"
value = "27% (inactive)"

[[record]]
compound = "CC1(O)Cc2c(O)c3c(c(O)c2CC1O)C(=O)C=CC3=O (configuration not stated)"
value = "43% (inactive)"

[[record]]
compound = "CCOC(=O)/C(=C/c1ccc(OC)c(OC)c1)C(=O)c1ccccc1"
value = "65% (inactive)"

[[record]]
compound = "COc1cccc2c1C(=O)c1c(O)c3c(c(O)c1C2=O)CC(O)(C(C)=O)CC3OC1CC(N)C(O)C(C)O1 (configuration not stated)"
value = "29% (inactive)"

[[record]]
compound = "NNC(=O)c1ccc(NC(=O)CSc2nc3ccccc3s2)cc1"
value = "59% (inactive)"

[[record]]
compound = "Cc1cccc(Cc2ccccc2Cl)c1O"
value = "80% (active)"

[[record]]
compound = "Nc1ccc2cc3ccc(N)cc3nc2c1"
value = "37% (inactive)"

[[record]]
compound = "CCn1c(-c2c(Cl)cc(O)cc2Cl)cc2c(Cl)cc(O)cc21"
value = "98% (active)"

[[record]]
compound = "O=C1CSC(=S)N1c1ccc(F)c(F)c1"
value = "94% (active)"

[[record]]
compound = "CCc1nc(N)nc(N)c1-c1ccc(Cl)c(N=[N+]=[N-])c1"
value = "54% (inactive)"

[[record]]
compound = "CCN(C(=O)C(Cl)Cl)C(Cc1ccccc1)c1ccccc1 (configuration not stated)"
value = "80% (active)"

[[record]]
compound = "CCCCCCCCCCCCCCCCCCOCC(COP(=O)([O-])OCC[N+](C)(C)C)OC (configuration not stated)"
value = "-14% (inactive)"

[[record]]
compound = "CC12CCCCC1C/C(=N/NC(N)=O)CC2 (configuration not stated)"
value = "-54% (inactive)"

[[record]]
compound = "CCN(CC)Cc1cc2c(cc1O)CC[C@@H]1[C@@H]2CC[C@]2(C)C(=O)CC[C@@H]12"
value = "47% (inactive)"

[[record]]
compound = "NNc1ccc2ccccc2c1"
value = "57% (inactive)"

[[record]]
compound = "CCOc1ccc(NC(=O)/C(=C\\c2ccc(C)cc2)C(C)=O)cc1"
value = "-4% (inactive)"

[[record]]
compound = "CCCC1CCC(=C2C(=O)CCC2=O)O1 (configuration not stated)"
value = "26% (inactive)"

[[record]]
compound = "CN(C)c1ccc(/C=C/c2ccnc3ccccc23)c(Cl)c1"
value = "35% (inactive)"

[[record]]
compound = "CC(C)c1ccc(C=Nc2ccc(SSc3ccc(N=Cc4ccc(C(C)C)cc4)cc3)cc2)cc1"
value = "-5% (inactive)"

[[record]]
compound = "ON=C(Cc1ccccc1)Cc1ccccc1"
value = "34% (inactive)"

[[record]]
compound = "CCCCC(O)CC (configuration not stated)"
value = "1% (inactive)"

[[record]]
compound = "O=C1/C(=C/c2ccc(Cl)cc2)Sc2scc(-c3cccc([N+](=O)[O-])c3)[n+]21"
value = "99% (active)"

[[record]]
compound = "Clc1ccc2c(c1)[nH]c1c2nc2ccccn21"
value = "95% (active)"

[[record]]
compound = "CC1(C)OC2C(O)C(O)C3OC(C)(C)OC3C2O1 (configuration not stated)"
value = "2% (inactive)"

[[record]]
compound = "COc1cc(C2C(C#N)=C(C)Nc3nc(N)nc(N)c32)cc(OC)c1OC (configuration not stated)"
value = "10% (inactive)"

[[record]]
compound = "Fc1cccc(NC(=S)SCc2ccc(Cl)c(Cl)c2)c1"
value = "98% (active)"

[[record]]
compound = "N#CC1Sc2ccccc2N1C(=O)OCc1ccccc1 (configuration not stated)"
value = "89% (active)"

[[record]]
compound = "COc1cccc2c1C(=O)c1c(O)c3c(c(O)c1C2=O)C[C@@](O)(C(C)=O)C[C@@H]3OC1CC(O)C(O)C(C)O1 (some centres not stated)"
value = "94% (active)"

[[record]]
compound = "CC(C)C1=CC23CCC4C(C)(C(=O)O)CCCC4(C)C2CC1C1C(=O)OC(=O)C13 (configuration not stated)"
value = "100% (active)"

[[record]]
compound = "O=C1C(CN2CCCCC2)CCCC1CN1CCCCC1 (configuration not stated)"
value = "29% (inactive)"

[[record]]
compound = "CC1(C)C(c2ccccc2)=Nc2ccccc21"
value = "61% (inactive)"

[[record]]
compound = "CCO/C(=C\\C=O)C1CCC2C3CC=C4CC(OC(C)=O)CCC4(C)C3CCC12C (configuration not stated)"
value = "86% (active)"


----------
assayName: NCI Yeast Anticancer Drug Screen. Data for the bub3 strain (AID 167)
protocolConditions: S. cerevisiae bub3 mutant strain, at 50.0 µM (retest, dose inferred, filed as 5.0)
Description: Growth inhibition of yeast strains with defined genetic alterations is measured as a screen for potential anti-cancer activity. Selected strains with alterations in DNA damage repair or cell cycle control were exposed to compounds and growth inhibition was measured relative to vehicle treated controls. The strain used in this assay is bub3
About 79,000 compounds went through this panel and 15% of them were active in at least one assay; those are over-represented in the sample as a whole. The source made the active and inactive calls. Rule as the data show it: active = growth inhibition above about 70%; inactive = the rest.
Classes used: T (active), F (inactive)

[[record]]
compound = "c1ccc(Cc2cc3ccccc3c3ccccc23)cc1"
assignedclass = "F"

[[record]]
compound = "CC(=O)OC1CCC2(C)C(CCC3C4CCC(OC(C)=O)C4(C)CCC32)O1 (stereo unspecified)"
assignedclass = "F"

[[record]]
compound = "ON=C(Cc1ccccc1)Cc1ccccc1"
assignedclass = "F"

[[record]]
compound = "Cc1cc(C)nc(NS(=O)(=O)c2ccc(Nc3c4ccccc4nc4c(C(=O)NCCCN(CCO)CCO)cccc34)cc2)n1"
assignedclass = "F"

[[record]]
compound = "CCSC(=NC)Nc1ccc(Oc2ccc(Cl)cc2)cc1"
assignedclass = "T"

[[record]]
compound = "Nc1nccnc1C(=O)O"
assignedclass = "F"

[[record]]
compound = "CCCC1CCC(=C2C(=O)CCC2=O)O1 (stereo unspecified)"
assignedclass = "F"

[[record]]
compound = "Cc1ccc(S(=O)(=O)Nc2cc(S(=O)(=O)O)c(N)c3c2C(=O)c2ccccc2C3=O)cc1"
assignedclass = "T"

[[record]]
compound = "CC[N](CC)[Ge]([CH2]C)[CH2]C.C[CH2][Ge]([CH2]C)[CH2]C"
assignedclass = "T"

[[record]]
compound = "NC(=O)N/N=C/c1ccc([N+](=O)[O-])o1"
assignedclass = "F"

[[record]]
compound = "CCSSc1ccccc1C(=O)NC(CC)CO (stereo unspecified)"
assignedclass = "F"

